system: Mus musculus; assay: Acute toxicity in Albino mouse at 100 mg/kg after 24 hrs; type: functional, organism-based; design: dose 100 mg/kg
Parameter measured: Activity

Consider the worked cases shown below.
O=c1cc(CNc2nc(-c3cc4ccccc4oc3=O)cs2)c2cc(Cl)ccc2[nH]1    Not toxic
O=c1cc(CNc2nc(-c3cc4cc(Br)cc(Br)c4oc3=O)cs2)c2cc(Cl)ccc2[nH]1    Not toxic
O=c1cc(CNc2nc(-c3cc4cc(Br)cc(Br)c4oc3=O)cs2)c2ccc(Cl)cc2[nH]1    Not toxic
O=c1cc(CNc2nc(-c3cc4cc(Br)ccc4oc3=O)cs2)c2ccc(Cl)cc2[nH]1    Not toxic
Cc1cccc2c(CNc3nc(-c4cc5ccccc5oc4=O)cs3)cc(=O)[nH]c12    Not toxic
Cc1cccc2c(CNc3nc(-c4cc5cc(Br)cc(Br)c5oc4=O)cs3)cc(=O)[nH]c12    Not toxic
O=c1cc(CNc2nc(-c3cc4cc(Br)ccc4oc3=O)cs2)c2cc(Cl)ccc2[nH]1    Not toxic
O=c1cc(CNc2nc(-c3cc4ccccc4oc3=O)cs2)c2ccc(Cl)cc2[nH]1    Not toxic

As a next step, examine the molecule that follows.
Suppose we examine the molecule Cc1cccc2c(CNc3nc(-c4cc5cc(Br)ccc5oc4=O)cs3)cc(=O)[nH]c12 ; what Activity value has been reported?
Not toxic
